Study System: T1, Human GDF15 Fc (human) (UniProt Q99988)
T1 sequence (chain, biotinylated (EZ-Link Sulfo-NHS-Biotinylation Kit) where printed as biotinylated): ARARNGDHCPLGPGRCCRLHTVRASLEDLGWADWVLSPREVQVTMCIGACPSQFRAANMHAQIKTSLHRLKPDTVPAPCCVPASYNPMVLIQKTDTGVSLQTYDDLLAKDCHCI
Protocol Notes: SPR Biacore, Fab monovalent
Experimental Endpoint: kon (M⁻¹ s⁻¹)

[[record]]
binder = "Clone I Fab (Fab, V domains shown) VH: QVQLVQSGAEVKKPGASVKVSCKASGYTFTDEGINWVRQAPGQGLEWMGWITAYSGDTVYAQKLQGRVTMTTDTSTSTAYMELRSLRSDDTAVYYCARGPGQYADVDVWGQGTMVTVSS VL: DIQMTQSPSSVSASVGDRVTITCRASQGISSWLAWYQQKPGKAPKLLIYAASSLQSGVPSRFSGSGSGTDFTLTISSLQPEDFATYYCQQANSFPITFGGGTKVEIK"
reported_result = "3.85e+06"

[[record]]
binder = "Clone L Fab (Fab, V domains shown) VH: QVQLVQSGAEVKKPGASVKVSCKASGYTFASYDIIWVRQAPGQGLEWMGWISALSGDTVYAQKLQGRVTMTTDTSTSTAYMELRSLRSDDTAVYYCARTRHDTSGIRFDYWGQGTLVTVSS VL: DIQMTQSPSSVSASVGDRVTITCRASQGIDSWLAWYQQKPGKAPKLLIYAASSLQSGVPSRFSGSGSGTDFTLTISSLQPEDFATYYCQQVHSFPITFGGGTKVEIK"
reported_result = "3.99e+06"

[[record]]
binder = "Clone E Fab (Fab, V domains shown) VH: QVQLVQSGAEVKKPGASVKVSCKASGYTFTSYGINWVRQAPGQGLEWMGWITAYSGDTNYAQKLQGRVTMTTDTSTSTAYMELRSLRSDDTAVYYCARGPGQYADVDVWGQGTMVTVSS VL: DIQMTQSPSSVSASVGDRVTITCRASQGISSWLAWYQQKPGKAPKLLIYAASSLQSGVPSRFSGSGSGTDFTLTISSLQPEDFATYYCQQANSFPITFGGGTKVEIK"
reported_result = "2.63e+06"

[[record]]
binder = "Clone O Fab (Fab, V domains shown) VH: QVQLVQSGAEVKKPGATVKVSCKASGYTFDSLGMSWVRQAPGQGLEWMGYISTYSGDTVYAQKLQGRVTMTTDTSTSTAYMELRSLRSDDTAVYYCARESGQQVSALDPWGQGTLVTVSS VL: DIQMTQSPSSVSASVGDRVTITCRASQGISRWLAWYQQKPGKAPKLLIYAASSLQSGVPSRFSGSGSGTDFTLTISSLQPEDFATYYCQQGASFPLTFGGGTKVEIK"
reported_result = "2.08e+06"

[[record]]
binder = "Clone S Fab (Fab, V domains shown) VH: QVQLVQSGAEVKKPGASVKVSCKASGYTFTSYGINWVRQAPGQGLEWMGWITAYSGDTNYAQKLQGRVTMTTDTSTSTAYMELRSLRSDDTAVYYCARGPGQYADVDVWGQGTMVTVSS VL: DIQLTQSPSSVSASVGDRVTITCRASQGISPWLAWYQQKPGKAPKLLIYAASSLQSGVPSRFSGSGSGTDFTLTISSLQPEDFATYYCQQANSFPITFGGGTKVEIK"
reported_result = "1.34e+06"

[[record]]
binder = "Clone P Fab (Fab, V domains shown) VH: QVQLVQSGAEVKKPGATVKVSCKASGYTFDSYGIHWVRQAPGQGLEWMGWITAYSGDTVYAQKLQGRVTMTTDTSTSTAYMELRSLRSDDTAVYYCARESGQTSSALGPWGQGTLVTVSS VL: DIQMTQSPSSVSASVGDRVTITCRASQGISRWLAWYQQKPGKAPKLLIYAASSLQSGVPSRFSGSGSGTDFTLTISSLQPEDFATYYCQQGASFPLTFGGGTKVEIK"
reported_result = "1.66e+07"


Origin of the recorded values: patent US20250019427A1
